Attribution: PubChem BioAssay AID2551

- assayed-target: Nuclear receptor ROR-gamma (Mus musculus)
- method-description: qHTS for inhibitors of ROR gamma transcriptional activity; note: nearly all actives have a fitted effect of over 60% in size
- test-context: Drosophila S2 Gal4-RORgamma UAS-luciferase reporter, 20 h; series mostly up to 53.6 µM
The whole screen tested about 310,000 compounds, of which about 17,000 (5.5%) were called active. Roughly 11% stayed inconclusive and do not appear here. Calls come from the whole dose curve; as a rule, active = well fitted inhibition curve with a large enough effect; inconclusive = small, poorly fitted or top-dose-only effect, or effect the other way; inactive = no such curve, though single readings can be large or run the other way. Shown is part of a subset that was picked to be rich in actives.
Outcomes you can answer with include only these: active, inactive

Here are 3 compounds together with their reported answers.
compound	assigned-label
COc1ccc(OCc2cc(C(=O)NCC3(C)COC3)no2)c(Cl)c1	inactive
CCN(CC)c1ccc(/C=N/NC(=O)CNC(=O)c2cccnc2)cc1	inactive
COc1cccc(CNS(=O)(=O)c2ccc3c(c2)N(C(C)=O)CCS3)c1	inactive

Here's the next entry for you.
INPUT: Which result was noted for this compound in the test: Cn1c(=O)[nH]c(=O)c2c1nc(N1CCN(C(c3ccccc3)c3ccccc3)CC1)n2CCO
OUTPUT: inactive

----------
- assayed-target: Nuclear receptor ROR-gamma (Mus musculus) (UniProt P51450)
- Sequence (P51450 whole entry, looked up): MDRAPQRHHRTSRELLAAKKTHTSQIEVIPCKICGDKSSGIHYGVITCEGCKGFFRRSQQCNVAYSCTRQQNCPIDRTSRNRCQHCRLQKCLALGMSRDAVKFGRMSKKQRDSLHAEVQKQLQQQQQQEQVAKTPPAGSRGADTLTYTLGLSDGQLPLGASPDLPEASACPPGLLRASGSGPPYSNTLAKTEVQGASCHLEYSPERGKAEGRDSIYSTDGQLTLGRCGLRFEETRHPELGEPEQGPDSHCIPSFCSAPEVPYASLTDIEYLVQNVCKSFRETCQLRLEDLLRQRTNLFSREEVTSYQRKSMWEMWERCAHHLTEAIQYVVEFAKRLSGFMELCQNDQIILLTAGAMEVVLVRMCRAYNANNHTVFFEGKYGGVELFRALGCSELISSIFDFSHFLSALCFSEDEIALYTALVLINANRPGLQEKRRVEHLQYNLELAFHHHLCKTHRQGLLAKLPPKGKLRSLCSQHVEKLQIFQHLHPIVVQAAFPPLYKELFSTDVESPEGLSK
- method-description: qHTS for inhibitors of ROR gamma transcriptional activity; note: nearly all actives have a fitted effect of over 60% in size
- test-context: Drosophila S2 Gal4-RORgamma UAS-luciferase reporter, 20 h; series mostly up to 53.6 µM
Out of some 310,000 compounds screened, about 17,000 (5.5%) were called active. Not shown: some 11% with an inconclusive outcome. The call rests on the fitted dose curve; in most records, active means well fitted inhibition curve with a large enough effect; inconclusive means small, poorly fitted or top-dose-only effect, or effect the other way; inactive means no such curve, though single readings can be large or run the other way. What follows is part of a selection rich in actives, with near analogues and random picks from the rest.
Outcomes you can answer with include only these: t = active, f = inactive

smi	assigned-label
CC(C)c1ccc(/C=C/C(=O)NNC(=O)c2cccnc2)cc1	f
COc1cc(C2C3=C(CCCC3=O)OC3=C2C(=O)CCC3)ccc1OCC(=O)Nc1ccccc1	f
Cc1cc(/C=N/Nc2ccc([N+](=O)[O-])cn2)c(C)n1-c1cccc(C(=O)O)c1	f
Nc1nc(CC(=O)CSc2ccc(Cl)cc2)nc(Nc2ccc(F)cc2)n1	t
NS(=O)(=O)c1cccc(NC(=O)CC23CC4CC(CC(Br)(C4)C2)C3)c1	f
COc1ccc(CCNC(=O)c2ccccc2OCc2ccccc2)cc1	f

INPUT: Which result was noted for this molecule in the test: COC(=O)c1sc(-c2ccc(C(C)(C)C)cc2)cc1NC(=O)/C=C/C(=O)O
OUTPUT: t

INPUT: Which result was noted for this molecule in the test: COc1ccccc1-c1n[nH]c2c1[C@H](C)CC[C@H]2C(C)C
OUTPUT: t

INPUT: Which result was noted for this molecule in the test: Cc1cc(C)nc(Nc2ncn[nH]2)n1
OUTPUT: f

INPUT: Which result was noted for this molecule in the test: COc1ccc(CCNS(=O)(=O)c2cn(C)nc2C)cc1
OUTPUT: f

INPUT: Which result was noted for this molecule in the test: Cc1cc(/C=C2\SC(=O)N(C)C2=O)c(C)n1-c1cccc(C(=O)O)c1
OUTPUT: f

----------
- assayed-target: Nuclear receptor ROR-gamma (Mus musculus) (UniProt P51450)
- method-description: qHTS for inhibitors of ROR gamma transcriptional activity; note: nearly all actives have a fitted effect of over 60% in size
- test-context: Drosophila S2 Gal4-RORgamma UAS-luciferase reporter, 20 h; series mostly up to 53.6 µM
About 17,000 (5.5%) of roughly 310,000 compounds were called active. About 11% were inconclusive and are not listed. Many of the other results were omitted from the sample, so actives are more common in it than they were.
value-kind: outcome

compound	assayed-target	value-kind	reported-value
COc1ccc(N2CCN(CCNC(=O)Nc3cc(Cl)ccc3Cl)CC2)cc1	Nuclear receptor ROR-gamma (Mus musculus) (UniProt P51450)	outcome	inactive
O=C1NC(c2cccc(Cl)c2)Nc2ccccc21 (stereo not drawn)	Nuclear receptor ROR-gamma (Mus musculus) (UniProt P51450)	outcome	inactive
O=C(NCCc1ccccc1)c1ccc2c(c1)N(Cc1ccccc1)CCS2	Nuclear receptor ROR-gamma (Mus musculus) (UniProt P51450)	outcome	inactive
